B1: HDV Ribozyme (parent)
chain: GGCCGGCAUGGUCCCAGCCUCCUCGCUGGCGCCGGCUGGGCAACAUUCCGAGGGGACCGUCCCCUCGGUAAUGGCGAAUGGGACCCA

Variants of: B1
Assay: self-cleavage, relative activity (ratio to wild type); higher = more cleavage; co-transcriptional
Entries get a class label from measured self-cleavage. See ranges: small value (below 0.2), mid value (0.2 to below 0.7), large value (0.7 or more)

Below, 3 variants whose answers are already recorded.
GGCCGGCAUGGUCCCAGCCUCCUCGCUGGCGCCGACUGGGCAACAUUCCGAGGGGACCGUCCCUUCGGUAAUGGCGAAUGGGACCCA [G35A C64U] : mid value
GGCCGGCAUGGUCCCAGCCUCCUCGCUGGCGCCGGCUGGGCAACAUUCCGAGGGGACCGUCCCCUCGGUAAUGGCGGAUGGGACCCG [A77G A87G] : large value
GGCCGGCAGGGUCCCAGCCUCCUCGCUGGCGCCGGCUGGGCAACAUUCCGAGAGGACCGUCCCCUCGGUAAUGGCGAAUGGGACCCA [U9G G53A] : large value

Request: Hi there! Could you help me figure out the category for GCCCGGCAUGGUCCCAGCCUCCUCGCUGGCGCCGGCUGGGCAACAUUCCGAGGGGACCGUCCCCUCGGUAAUGGCGAAUGGAACCCA [G2C G82A] please?
Result: small value

Request: Also need GGCCGGCAUGGUCCCAGCCUCCUCGCUGGCGCCGGCUGGGCAACAUUCCGAGGGGAGCGUCCCCUCGGUAAUGGCGAAAGGGACCCA [C57G U79A] , thanks.
Result: large value

Request: Lookup GGCCGGCAUGGUCCCAGCCUCCUCGCUAGCGCCGGCUGGGCAACAUUCCGAGGGGACCGUCCCCUCGUUAAUGGCGAAUGGGACCCA [G28A G68U]
Result: small value

Request: Thanks! And GGCCGGCAUGGUCCCAGCCUCCUCGCUGGCGCCGGCUGGGCAACAUUCCGAGGGGACCGUCCACUCGGUGAUGGCGAAUGGGACCCA [C63A A70G] ?
Result: large value

Request: // next record GGCCGGCAUGGUCCCAGCCUCCUCGCUGGCGCCGGCUGGGCAACAUUCGGAGGGGACCGUCCCCUCGGUAAUGGCUAAUGGGACCCA [C49G G76U]
Result: large value

Request: Would you mind doing GGCAGGCAUGGUGCCAGCCUCCUCGCUGGCGCCGGCUGGGCAACAUUCCGAGGGGACCGUCCCCUCGGUAAUGGCGAAUGGGACCCA [C4A C13G] as well?
Result: small value

Request: Query GGCCGGCAUGGUCCCAGCCUCCUCGCUGGCGCCGGCUGGGCAACAUUCCGAGAUGACCGUCCCCUCGGUAAUGGCGAAUGGGACCCA [G53A G54U] next
Result: large value

Values were extracted from the RNAGym collection of RNA variant scans (doi:10.7554/elife.80360).
